# target.entity: Ribosomal protein S6 kinase alpha-3 (Homo sapiens) (UniProt P51812)
# Sequence (P51812 whole entry): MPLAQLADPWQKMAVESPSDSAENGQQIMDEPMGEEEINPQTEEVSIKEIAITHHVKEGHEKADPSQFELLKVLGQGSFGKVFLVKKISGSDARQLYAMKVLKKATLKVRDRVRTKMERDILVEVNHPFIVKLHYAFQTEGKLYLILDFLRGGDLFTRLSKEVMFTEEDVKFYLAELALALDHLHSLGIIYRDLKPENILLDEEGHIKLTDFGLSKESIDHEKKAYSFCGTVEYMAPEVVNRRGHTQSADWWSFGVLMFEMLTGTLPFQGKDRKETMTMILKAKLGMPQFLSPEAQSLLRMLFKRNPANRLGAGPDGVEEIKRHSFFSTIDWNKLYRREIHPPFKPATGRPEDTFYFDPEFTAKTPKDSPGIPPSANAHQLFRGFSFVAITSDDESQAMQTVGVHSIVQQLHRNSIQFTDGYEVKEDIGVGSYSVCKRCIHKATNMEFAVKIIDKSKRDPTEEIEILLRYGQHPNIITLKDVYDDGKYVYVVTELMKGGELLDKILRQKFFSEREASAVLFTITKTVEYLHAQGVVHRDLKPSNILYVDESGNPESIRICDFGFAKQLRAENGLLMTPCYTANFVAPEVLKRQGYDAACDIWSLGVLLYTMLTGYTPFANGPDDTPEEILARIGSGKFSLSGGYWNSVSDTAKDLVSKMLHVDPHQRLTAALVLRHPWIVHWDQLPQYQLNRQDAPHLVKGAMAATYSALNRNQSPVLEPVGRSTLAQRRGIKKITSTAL
# experimental.conditions: at 1 µM
# Description: GSK_PKIS: RSK2 mean inhibition at 1 uM [Nanosyn]

- compound: "FC(F)(F)CNc1nccc(-c2cnn3ncccc23)n1"
  unit.of.measure: "%"
  inhibition: 2.69
- compound: "CC1=C(C(=O)Nc2ccc3[nH]ncc3c2)C(c2ccc(F)cc2)N=C(c2ccc(C(F)(F)F)nc2)N1 (centres undefined)"
  unit.of.measure: "%"
  inhibition: 2.71
- compound: "O=C1Nc2ccccc2/C1=C1\\CCc2cc(O)ccc21"
  unit.of.measure: "%"
  inhibition: 27
- compound: "c1ccc(-c2n[nH]cc2-c2ccnc(-c3ccc(OCCn4ccnc4)cc3)c2)nc1"
  unit.of.measure: "%"
  inhibition: 3.85
- compound: "Cc1c2ccc(N(C)c3ccnc(Nc4cccc(S(N)(=O)=O)c4)n3)cc2nn1C"
  unit.of.measure: "%"
  inhibition: 3.86
- compound: "CN1CCC(n2cnc(-c3ccc(F)cc3)c2-c2ccnc(NCCO)n2)CC1"
  unit.of.measure: "%"
  inhibition: 3.09
- compound: "CC(C)c1ccc(-c2cc(-c3c[nH]nc3-c3ccccn3)ccn2)cc1"
  unit.of.measure: "%"
  inhibition: 0.24
- compound: "COc1cc(Nc2ncc(-c3ccccc3)o2)cc(OC)c1"
  unit.of.measure: "%"
  inhibition: 2.61
- compound: "O=C(O[C@H]1CN[C@H](C#Cc2cc3ncnc(Nc4ccc5c(ccn5Cc5cc(F)ccc5F)c4)c3s2)C1)N1CCOCC1"
  unit.of.measure: "%"
  inhibition: 0.89
